Values from patent US20260167728A1

biological target: T1, huCD3e-mFc (human, UniProt P07766 23-126); assay: Pool 3 screen
T1 construct: not shown: mFc, not described
T1 sequence (P07766 23-126): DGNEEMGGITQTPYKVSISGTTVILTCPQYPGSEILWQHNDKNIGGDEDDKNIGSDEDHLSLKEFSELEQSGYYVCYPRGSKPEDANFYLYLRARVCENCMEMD
METRIC_NAME: Kd

Study these solved cases before continuing.
- BINDER: "AC3860 (CD3.356) (scFv, V domains shown, Pool 3 format (remarks)) VH: EVQLVESGGGIVQPGGSLRLSCAASGFTFSTYAMNWVRQAPGKGLEWVGRIRTKTNDYATYYADSVKGRFTISRDDSKNTAYLQMNSLKTEDTAVYYCVRHENFGNSYVSWFAHWGQGTLVTVSS VL: ELVVTQEPSLTVSPGGTVTLTCRSSNGAVTSSNYANWVQQKPGQAPRGLIGGTNKRAPGTPARFSGSALGGKAALTLSGVQPEDEAVYYCALWYPNLWVFGGGTKLTVL"
  METRIC_NAME: "Kd"
  RESULT: "29.4 nM"
- BINDER: "AC3835 (CD3.331) (scFv, V domains shown, Pool 3 format (remarks)) VH: EVQLVESGGGIVQPGGSLRLSCAASGFTFNTYAMNWVRQAPGKGLEWVGRIRTKTNDYATYYADSVKGRFTISRDDSKNTAYLQMNSLKTEDTAVYYCVRHENFGNSYVSWFAHWGQGTLVTVSS VL: ELVVTQEPSLTVSPGGTVTLTCRSSNGAVTSSNYANWVQQKPGQAPRGLIGGTNKRAPGTPARFSGSLNGGKAALTLSGVQPEDEAVYYCALWYPNLWVFGGGTKLTVL"
  METRIC_NAME: "Kd"
  RESULT: "35.7 nM"
- BINDER: "AC3843 (CD3.339) (scFv, V domains shown, Pool 3 format (remarks)) VH: EVQLVESGGGIVQPGGSLRLSCAASGFTFNTYAMNWVRQAPGKGLEWVGRIRTKTNDYATYYADSVKGRFTISRDDSKNTLYLQMNSLKTEDTAVYYCVRHENFGNSYVSWFAHWGQGTLVTVSS VL: ELVVTQEPSLTVSPGGTVTLTCRSSNGAVTSSNYANWVQQKPGQAPRGLIGGTNKRAPGTPARFSGSGLGGKAALTLSGVQPEDEAVYYCALWYPNLWVFGGGTKLTVL"
  METRIC_NAME: "Kd"
  RESULT: "15.4 nM"
- BINDER: "AC3882 (CD3.378) (scFv, V domains shown, Pool 3 format (remarks)) VH: EVQLVESGGGIVQPGGSLRLSCAASGFTFSTYAMNWVRQAPGKGLEWVGRIRTKRNNYATYDADSVKGRFTISRDDSKNTVYLQMNSLKTEDTAVYYCVRHENFGNSYVSWFAHWGQGTLVTVSS VL: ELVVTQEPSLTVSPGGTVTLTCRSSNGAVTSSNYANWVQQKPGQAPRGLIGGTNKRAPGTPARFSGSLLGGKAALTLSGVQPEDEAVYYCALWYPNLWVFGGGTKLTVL"
  METRIC_NAME: "Kd"
  RESULT: "3.74 nM"
- BINDER: "AC3801 (CD3.297) (scFv, V domains shown, Pool 3 format (remarks)) VH: EVQLVESGGGIVQPGGSLRLSCAASGFTFSTYAMNWVRQAPGKGLEWVGRIRTKRNNYATYYADSVKGRFTISRDDSKNTVYLQMNSLKTEDTAVYYCVRHENFGNSYVSWFAHWGQGTLVTVSS VL: ELVVTQEPSLTVSPGGTVTLTCRSSNGAVTSSNYANWVQQKPGQAPRGLIGGTNKRAPGTPARFSGSLGGGKAALTLSGVQPEDEAVYYCALWYPNLWVFGGGTKLTVL"
  METRIC_NAME: "Kd"
  RESULT: "3.92 nM"
- BINDER: "AC3807 (CD3.303) (scFv, V domains shown, Pool 3 format (remarks)) VH: EVQLVESGGGIVQPGGSLRLSCAASGFTFSTYAMNWVRQAPGKGLEWVGRIRTKRNDYATYYADSVKGRFTISRDDSKNTAYLQMNSLKTEDTAVYYCVRHENFGNSYVSWFAHWGQGTLVTVSS VL: ELVVTQEPSLTVSPGGTVTLTCRSSNGAVTSSNYANWVQQKPGQAPRGLIGGTNKRAPGTPARFSGSGLGGKAALTLSGVQPEDEAVYYCALWYPNLWVFGGGTKLTVL"
  METRIC_NAME: "Kd"
  RESULT: "6.08 nM"

Hi! Can you tell me Kd for each of these binders?
1. AC3877 (CD3.373) (scFv, V domains shown, Pool 3 format (remarks)) VH: EVQLVESGGGIVQPGGSLRLSCAASGFTFSTYAMNWVRQAPGKGLEDVGRIRTKRNNYATYYADSVKGRFTISRDDSKNTVYLQMNSLKTEDTAVYYCVRHENFGNSYVSWFAHWGQGTLVTVSS VL: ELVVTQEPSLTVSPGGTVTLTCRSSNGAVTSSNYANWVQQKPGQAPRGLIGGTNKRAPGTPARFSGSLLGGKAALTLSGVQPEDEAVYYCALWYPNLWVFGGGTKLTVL
2. AC3821 (CD3.317) (scFv, V domains shown, Pool 3 format (remarks)) VH: EVQLVESGGGIVQPGGSLRLSCAASGFTFSTYAMNWVRQAPGKGLEWVGRIRTKRNDYATYYADSVKGRFTISRDDSKNTLYLQMNSLKTEDTAVYYCVRHENFGNSYVSWFAHWGQGTLVTVSS VL: ELVVTQEPSLTVSPGGTVTLTCRSSNGAVTSSNYANWVQQKPGQAPRGLIGGTNKRAPGTPARFSGSLLGGKAGLTLSGVQPEDEAVYYCALWYPNLWVFGGGTKLTVL
3. AC3810 (CD3.306) (scFv, V domains shown, Pool 3 format (remarks)) VH: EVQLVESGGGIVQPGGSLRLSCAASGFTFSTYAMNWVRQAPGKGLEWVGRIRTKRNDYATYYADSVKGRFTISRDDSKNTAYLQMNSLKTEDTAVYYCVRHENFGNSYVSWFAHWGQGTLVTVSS VL: ELVVTQEPSLTVSPGGTVTLTCRSSNGAVTSSNYANWVQQKPGQAPRGLIGGTNKRAPGTPARFSGSLGGGKAALTLSGVQPEDEAVYYCALWYPNLWVFGGGTKLTVL
4. AC3869 (CD3.365) (scFv, V domains shown, Pool 3 format (remarks)) VH: EVQLVESGGGIVQPGGSLRLSCAASGFTFSTYAMNWVRQAPGKGLEWVGRIRTKTNDYATYYADSVKGRFTISRDDSKNTLYLQMNSLKTEDTAVYYCVRHENFGNSYVSWFAHWGQGTLVTVSS VL: ELVVTQEPSLTVSPGGTVTLTCRSSNGAVTSSNYANWVQQKPGQAPRGLIGGTNKRAPGTPARFSGSALGGKAALTLSGVQPEDEAVYYCALWYPNLWVFGGGTKLTVL

[reply]
1. 8.92 nM
2. 4.1 nM
3. 5.09 nM
4. 18.8 nM
